Attribution: patent US9657057B2

target: LMP7 (Homo sapiens, UniProt P20618+P28062); construct: endogenous in cells; host or cells: MOLT-4; assay: ProCISE proteasome subunit assay, LMP7; type: biochemical; conditions: MOLT4 lysate Hu 1 h
Threshold 0.5 µM. IC50 below it: class 1. IC50 at it or above: class 0.

# Structure as smiles, Category label
data = [
    ("COc1ccc(C[C@H](NC(=O)[C@@H](C)NC(=O)c2ccncc2)C(=O)N[C@@H](CC2CCCC2)C(=O)[C@@]2(C)CO2)cc1", "class 0"),
    ("COc1ccc(C[C@H](NC(=O)[C@@H]2CCC(=O)N2)C(=O)N[C@@H](Cc2ccccc2)C(=O)[C@@]2(C)CO2)cc1", "class 0"),
    ("COc1ccc(C[C@H](NC(=O)[C@@H](C)NC(=O)[C@@H]2CCc3[nH]ncc3C2)C(=O)N[C@@H](CC2CCCC2)C(=O)[C@@]2(C)CO2)cc1", "class 1"),
    ("COc1ccc(C[C@H](NC(=O)[C@@H](C)NC(=O)C2=CCCC2)C(=O)N[C@@H](Cc2ccccc2)C(=O)[C@@]2(C)CO2)cc1", "class 0"),
    ("COc1ccc(C[C@H](NC(=O)[C@H]2CCC(=O)N2)C(=O)N[C@@H](Cc2ccccc2)C(=O)[C@@]2(C)CO2)cc1", "class 0"),
    ("CCOCC(=O)N[C@H](C)C(=O)N[C@@H](Cc1ccc(OC)cc1)C(=O)N[C@@H](CC1CCCC1)C(=O)[C@@]1(C)CO1", "class 0"),
    ("COc1ccc(C[C@H](NC(=O)[C@@H](C)NC(=O)[C@H]2CCc3[nH]ncc3C2)C(=O)N[C@@H](CC2CCCC2)C(=O)[C@@]2(C)CO2)cc1", "class 1"),
    ("COCOCCC(=O)N[C@@H](C)C(=O)N[C@@H](Cc1ccc(OC)cc1)C(=O)N[C@@H](Cc1ccccc1)C(=O)[C@@]1(C)CO1", "class 1"),
    ("COc1ccc(C[C@H](NC(=O)[C@@H](C)NC(=O)C2=CCCC2)C(=O)N[C@@H](CC2CCCC2)C(=O)[C@@]2(C)CO2)cc1", "class 1"),
    ("COc1ccc(C[C@H](NC(=O)[C@H](C)NC(=O)c2cc(C)no2)C(=O)N[C@@H](CC2CCCC2)C(=O)[C@@]2(C)CO2)cc1", "class 1"),
]

----------
assay: Solubility pH 7; type: physicochemical; conditions: pH 7, aqueous buffer
Would you please tag the item class 1 when its solubility is 2000 µg/mL or above, and class 0 when it is below?

# Structure as smiles, Category label
measured = [
    ("COc1ccc(C[C@H](NC(=O)[C@@H](C)NC(=O)C2=C(C)c3ccccc3C2)C(=O)N[C@@H](Cc2ccccc2)C(=O)[C@@]2(C)CO2)cc1", "class 0"),
    ("COc1ccc(C[C@H](NC(=O)[C@H](C)NC(=O)CCO)C(=O)N[C@@H](Cc2ccccc2)C(=O)[C@@]2(C)CO2)cc1", "class 1"),
    ("COc1ccc(C[C@H](NC(=O)[C@@]2(CO)CCCN2)C(=O)N[C@@H](Cc2ccccc2)C(=O)[C@@]2(C)CO2)cc1", "class 0"),
    ("COc1ccc(C[C@H](NC(=O)c2cccc(=O)[nH]2)C(=O)N[C@@H](CC2CCCC2)C(=O)[C@@]2(C)CO2)cc1", "class 0"),
    ("COc1ccc(C[C@H](NC(=O)[C@H](C)NC(=O)c2cnc(C)s2)C(=O)N[C@@H](CC2CCCC2)C(=O)[C@@]2(C)CO2)cc1", "class 0"),
    ("COc1ccc(C[C@H](NC(=O)[C@H](C)NC(=O)CO)C(=O)N[C@@H](Cc2ccccc2)C(=O)[C@@]2(C)CO2)cc1", "class 1"),
]
